inhibition at 1 µM overview
molecular target: CDK4/Cyclin D3 complex (Homo sapiens); construct: made in house; host or cells: insect cells co-infected with baculovirus vectors; experiment: CDK4/Cyclin D assay; assay type: biochemical; settings: 1.0 μM; combinatorial library compounds
Quick reminder: number only, in %, skip the unit.

Please review the entries below; each comes with its answer.
CN(C)c1ccc(Nc2nc(N)c(-c3nc(-c4ccc([N+](=O)[O-])cc4)cs3)s2)cc1 ... 50.4
CN(C)c1ccc(Nc2nc(N)c(-c3nc(-c4ccc(C(F)(F)F)cc4)cs3)s2)cc1 ... 60.3
CCCCCc1ccc(-c2csc(-c3sc(Nc4ccc(C(C)C)cc4)nc3N)n2)cc1 ... 10.3

Summary for this compound, Nc1nc(Nc2ccc(S(N)(=O)=O)cc2)sc1-c1nc(-c2ccc3ccccc3c2)cs1 : inhibition at 1 µM is -8.9

Summary for this compound, CC(C)c1ccc(Nc2nc(N)c(-c3nc(-c4c(Cl)cc(C(F)(F)F)cc4Cl)cs3)s2)cc1 : inhibition at 1 µM is 86.2

Summary for this compound, CN(C)c1ccc(Nc2nc(N)c(-c3nc(-c4ccc(-c5ccc(Cl)cc5Cl)o4)cs3)s2)cc1 : inhibition at 1 µM is 35.6

Summary for this compound, Cc1onc(-c2ccccc2)c1-c1csc(-c2sc(Nc3ccc(S(N)(=O)=O)cc3)nc2N)n1 : inhibition at 1 µM is -3.9

Summary for this compound, CN(C)c1ccc(Nc2nc(N)c(-c3nc(-c4ccc[nH]4)cs3)s2)cc1 : inhibition at 1 µM is 63.6

Summary for this compound, Nc1nc(Nc2ccc(S(N)(=O)=O)cc2)sc1-c1nc(-c2ccc(Cl)cc2)cs1 : inhibition at 1 µM is 10.9

----------
target: CDK2/Cyclin A complex (Homo sapiens); test: CDK2/Cyclin A assay; format: biochemical; conditions: 1.0 μM; combinatorial library compounds
inhibition at 1 µM overview
Quick reminder: number only, in %, skip the unit.

Please review the entries below; each comes with its answer.
Nc1nc(Nc2ccc(S(N)(=O)=O)cc2)sc1-c1nc(-c2ccc(F)cc2F)cs1 [drawing 445] ... 74.1
COc1ccc2nc(-c3ccccc3)c(-c3csc(-c4sc(Nc5ccc(C(C)C)cc5)nc4N)n3)cc2c1 ... 26
Nc1nc(Nc2ccc(S(N)(=O)=O)cc2)sc1-c1nc(-c2ccc(-c3ccc(Cl)cc3Cl)o2)cs1 ... 21.4

Okay, next one:
Summary for this molecule, Cc1ccc(-c2csc(-c3sc(Nc4ccc(N(C)C)cc4)nc3N)n2)c(C)c1 : inhibition at 1 µM is 16.1

----------
Biological target: FL-CHK1 (Homo sapiens)
Construct: C-terminally His-tagged full-length human CHK1 (FL-CHK1); 6xHis (C); made in house; host or cells: baculovirus/insect cells
Sequence (O14757 1-476): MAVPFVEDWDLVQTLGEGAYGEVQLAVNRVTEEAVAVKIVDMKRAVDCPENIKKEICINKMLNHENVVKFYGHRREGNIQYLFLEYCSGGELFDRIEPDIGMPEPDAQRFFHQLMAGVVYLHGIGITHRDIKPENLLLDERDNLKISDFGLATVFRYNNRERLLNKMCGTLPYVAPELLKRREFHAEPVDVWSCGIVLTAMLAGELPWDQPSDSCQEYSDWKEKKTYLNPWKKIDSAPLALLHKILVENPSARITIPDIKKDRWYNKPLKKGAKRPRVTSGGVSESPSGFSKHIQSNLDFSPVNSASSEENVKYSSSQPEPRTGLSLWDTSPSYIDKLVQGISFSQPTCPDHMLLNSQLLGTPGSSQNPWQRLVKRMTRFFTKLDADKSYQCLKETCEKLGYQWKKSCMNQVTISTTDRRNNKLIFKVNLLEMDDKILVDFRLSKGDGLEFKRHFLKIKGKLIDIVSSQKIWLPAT
Assay: CHK1 assay
Type: biochemical
Conditions: 20 μM; combinatorial library compounds
OUTCOME_MEASURE: inhibition at 20 µM

Please review the entries below; each comes with its answer.
CC(C)c1ccc(Nc2nc(N)c(-c3nc(-c4ccc5c(c4)C(C)(C)CCC5(C)C)cs3)s2)cc1 ... 11.6%
CCCCCc1ccc(-c2csc(-c3sc(Nc4ccc(C(C)C)cc4)nc3N)n2)cc1 ... 0.7%
CN(C)c1ccc(Nc2nc(N)c(-c3nc(-c4ccc(Cl)cc4)cs3)s2)cc1 ... 2.5%

Summary for this compound, COc1cccc(-c2csc(-c3sc(Nc4ccc(S(N)(=O)=O)cc4)nc3N)n2)c1 : inhibition at 20 µM is 15.2%

Summary for this compound, Nc1nc(Nc2ccc(S(N)(=O)=O)cc2)sc1-c1nc(-c2ccc(Cl)cc2Cl)cs1 [drawing 406] : inhibition at 20 µM is 14.7%

Summary for this compound, Nc1nc(Nc2ccc(S(N)(=O)=O)cc2)sc1-c1nc(-c2ccc3ccccc3c2)cs1 : inhibition at 20 µM is 7.8%

Summary for this compound, Nc1nc(Nc2ccc(S(N)(=O)=O)cc2)sc1-c1nc(-c2ccc(Cl)c([N+](=O)[O-])c2)cs1 : inhibition at 20 µM is 13.1%

Summary for this compound, CN(C)c1ccc(Nc2nc(N)c(-c3nc(-c4ccc(F)c(F)c4)cs3)s2)cc1 : inhibition at 20 µM is 4.2%

Summary for this compound, COc1ccc(OC)c(-c2csc(-c3sc(Nc4ccc(C(C)C)cc4)nc3N)n2)c1 : inhibition at 20 µM is -5.2%

Summary for this compound, Cc1c(-c2csc(-c3sc(Nc4ccc(N(C)C)cc4)nc3N)n2)sc2ccccc12 : inhibition at 20 µM is 3.2%

Summary for this compound, CN(C)c1ccc(Nc2nc(N)c(-c3nc(-c4ccc(F)cc4)cs3)s2)cc1 : inhibition at 20 µM is 41.7%

----------
biological target: FL-CHK1 (Homo sapiens, UniProt O14757); construct: C-terminally His-tagged full-length human CHK1 (FL-CHK1); 6xHis (C); made in house; host or cells: baculovirus/insect cells; assay: CHK1 assay; type: biochemical; set-up: unit not given here; details: Table A combinatorial examples; footnote b not given
Hi! Could you tag entries with CHK1^b below 30 as Met, and those at or above as Not met? Much appreciated.

COc1cc(Nc2nc(N)c(-c3nc(-c4ccc5c(c4)OCCO5)cs3)s2)cc2c1OCCO2 ... Not met
COc1cc(Nc2nc(N)c(-c3nc(-c4sc5ccc(Cl)cc5c4C)cs3)s2)cc2c1OCCO2 [drawing 363] ... Not met
COc1cc(Nc2nc(N)c(-c3nc(-c4cc(C)c(O)c(C)c4)cs3)s2)cc(OC)c1OC ... Met
COc1cc(Nc2nc(N)c(-c3nc(-c4ccc(CC(=O)O)s4)cs3)s2)cc(OC)c1OC ... Not met

Now look at this one.
For COc1cc(Nc2nc(N)c(-c3nc(-c4ccc[nH]4)cs3)s2)cc(OC)c1OC , is the recorded CHK1^b below the cut-off of 30?
Not met

----------
biological target: CDK4/Cyclin D3 complex (Homo sapiens, UniProt P11802); construct: made in house; host or cells: insect cells co-infected with baculovirus vectors; assay: CDK4/Cyclin D assay; assay type: biochemical; details: 1.0 μM; combinatorial library compounds
Sequence (P11802 whole entry): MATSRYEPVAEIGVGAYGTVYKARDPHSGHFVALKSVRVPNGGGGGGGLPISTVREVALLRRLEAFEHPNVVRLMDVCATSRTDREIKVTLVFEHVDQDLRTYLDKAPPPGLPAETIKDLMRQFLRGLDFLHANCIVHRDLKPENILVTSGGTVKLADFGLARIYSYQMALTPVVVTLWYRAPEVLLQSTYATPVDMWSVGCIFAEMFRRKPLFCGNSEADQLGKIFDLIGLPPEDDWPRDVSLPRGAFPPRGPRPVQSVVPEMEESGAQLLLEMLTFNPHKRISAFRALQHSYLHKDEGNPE
Sequence (P30281 whole entry partner): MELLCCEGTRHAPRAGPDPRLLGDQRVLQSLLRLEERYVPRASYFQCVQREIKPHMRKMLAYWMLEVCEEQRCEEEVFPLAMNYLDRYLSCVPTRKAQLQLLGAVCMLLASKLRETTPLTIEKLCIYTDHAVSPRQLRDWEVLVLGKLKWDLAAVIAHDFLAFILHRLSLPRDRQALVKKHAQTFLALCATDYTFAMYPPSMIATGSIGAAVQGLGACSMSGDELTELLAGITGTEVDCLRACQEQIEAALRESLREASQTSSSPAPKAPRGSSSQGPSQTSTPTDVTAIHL
OUTCOME_MEASURE: inhibition at 1 µM

Summary for this molecule, COc1ccccc1-c1csc(-c2sc(Nc3ccc(C(C)C)cc3)nc2N)n1 : inhibition at 1 µM is 53.3%

Summary for this molecule, COc1ccc(-c2csc(-c3sc(Nc4ccc(C(C)C)cc4)nc3N)n2)c(OC)c1 : inhibition at 1 µM is 38.2%

Summary for this molecule, CCN(CC)c1ccc(-c2csc(-c3sc(Nc4ccc(N(C)C)cc4)nc3N)n2)cc1 : inhibition at 1 µM is 57.8%

Summary for this molecule, CCc1cc2c(cc1-c1csc(-c3sc(Nc4ccc(C(C)C)cc4)nc3N)n1)C(C)(C)CCC2(C)C : inhibition at 1 µM is 61.4%

----------
target: CDK4/Cyclin D3 complex (Homo sapiens); construct: made in house; host or cells: insect cells co-infected with baculovirus vectors; test: CDK4/Cyclin D assay; format: biochemical; conditions: 1.0 μM; combinatorial library compounds
OUTCOME_MEASURE: inhibition at 1 µM (%)
Quick reminder: number only, in %, skip the unit.

Please review the entries below; each comes with its answer.
Cc1cc(-c2csc(-c3sc(Nc4ccc(C(C)C)cc4)nc3N)n2)ccc1Cl ... 9.1
CN(C)c1ccc(Nc2nc(N)c(-c3nc(-c4cccc(OC(=O)c5ccccc5)c4)cs3)s2)cc1 ... 57.5

Okay, next one:
Summary for this molecule, CC(C)c1ccc(Nc2nc(N)c(-c3nc(-c4cc(-c5ccccc5)no4)cs3)s2)cc1 : inhibition at 1 µM is 50.4
